- assay.remarks: Homogenization stability in mouse tissues
- Assay type: in vitro ADME
- condition.parameters: blank lung tissue, homogenized
assay.readout: recovery at 3240 ng/mL (%)
Use % as the unit, but write only the number.

Q: Entry under review: COc1ccc2[nH]c3c(-c4cccc5ccccc45)nccc3c2c1 [SP-141] . Reported recovery at 3240 ng/mL?
Ans: 93.3

====

- assay.remarks: Homogenization stability in mouse tissues
- Type: in vitro ADME
- condition.parameters: blank muscle tissue, homogenized
assay.readout: recovery at 3240 ng/mL (%)
Output spec: scalar in %, unitless text.

Q: // query recovery at 3240 ng/mL value for entry COc1ccc2[nH]c3c(-c4cccc5ccccc45)nccc3c2c1 [SP-141]
Ans: 97.5
